- EXPERIMENTAL SYSTEM: Son of Sevenless (SOS) (Homo sapiens)
- Sequence (Q07889 564-1049 limits assumed): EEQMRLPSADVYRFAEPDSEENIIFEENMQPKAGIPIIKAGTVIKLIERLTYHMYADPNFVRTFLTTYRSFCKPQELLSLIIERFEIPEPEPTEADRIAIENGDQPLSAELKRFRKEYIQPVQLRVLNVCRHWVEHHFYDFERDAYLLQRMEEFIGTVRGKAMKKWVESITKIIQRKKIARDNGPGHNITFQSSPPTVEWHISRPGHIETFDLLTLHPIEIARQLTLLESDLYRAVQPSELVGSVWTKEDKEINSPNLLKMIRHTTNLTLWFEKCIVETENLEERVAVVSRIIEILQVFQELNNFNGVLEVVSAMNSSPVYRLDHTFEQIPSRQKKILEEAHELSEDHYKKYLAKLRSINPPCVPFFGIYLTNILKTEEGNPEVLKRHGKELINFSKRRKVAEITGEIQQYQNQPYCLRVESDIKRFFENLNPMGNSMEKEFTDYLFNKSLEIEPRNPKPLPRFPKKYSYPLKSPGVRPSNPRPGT
Counter-ions that a name gives are not always drawn.
REPORTED ENDPOINT: Ki

Before answering, review these 10 worked examples.
Query block: Look at this compound and give its reported Ki. CCCN1CC[C@@H](C(=O)c2ccccc2)[C@H]1c1cc(Cl)cc2c1nc(N1CCNCC1)n2Cc1cc(C)c(F)c(C)c1 [Example 148, trifluoroacetate]
Result block: 0.5 to 1 µM

Query block: Look at this compound and give its reported Ki. Cc1ccc2nc(N3CCNCC3)n(Cc3ccc(F)c(Cl)c3)c2c1 [Example 61, trifluoroacetate]
Result block: 1 to 5 µM

Query block: What value of measured Ki is listed for Cc1cc(N2CCNCC2)c2nc(N3CCNCC3)n(Cc3cc(C)c(F)c(C)c3)c2c1 [Example 190, trifluoroacetate] ?
Result block: 0.5 to 1 µM

Query block: Field request: Ki | item: Cc1cc2nc(NCCN)n(Cc3cccc(C(F)(F)F)c3)c2cc1C [Example 33, trifluoroacetate]
Result block: > 5 µM

Query block: Bench note: what Ki did C=Cc1cc2c(cc1C)nc(NCCN)n2Cc1ccc(F)c(Cl)c1 [Example 65, trifluoroacetate] show?
Result block: 1 to 5 µM

Query block: Which value of Ki has been reported for CC(C)n1nccc1-c1cc(Cl)cc2c1nc(N1CCNCC1)n2Cc1ccc(F)c(Cl)c1 [Example 176, trifluoroacetate] in the records?
Result block: < 0.5 µM

Query block: For the compound shown here, Cc1cc(Cn2c(N3CCNCC3)nc3c(-c4ccccc4Cl)cc(Cl)cc32)cc(C)c1F , give the reported Ki.
Result block: < 0.5 µM

Query block: Sample Cc1cc(CN(C)C)c2nc(N3CCNCC3)n(Cc3cc(C)c(F)c(C)c3)c2c1 [Example 128, trifluoroacetate] — what was its Ki?
Result block: 0.5 to 1 µM

Query block: Returns the measured Ki for the input compound. Input: Cc1cc(N2CCC(CN)C2)c2nc(N3CCNCC3)n(Cc3cc(C)c(F)c(C)c3)c2c1 (stereo not shown) [Example 189, trifluoroacetate]
Result block: 0.5 to 1 µM

Query block: Dear colleague, I am looking for the recorded Ki of the following compound: Cc1cc2c(nc(N3CCNCC3)n2Cc2ccc(Cl)cc2)c(-c2ccccc2F)c1C [Example 107, trifluoroacetate]
Result block: 1 to 5 µM

Others:
Query block: May I ask what Ki has been recorded for Cc1cc(CN2CCCC2)c2nc(N3CCNCC3)n(Cc3cc(C)c(F)c(C)c3)c2c1 [Example 124, trifluoroacetate] ?
Result block: 1 to 5 µM

Query block: Reported Ki, compound Cc1ccccc1C#Cc1ccccc1-c1cc(Cl)cc2c1nc(N1CCNCC1)n2Cc1cc(C)c(F)c(C)c1 [Example 185, trifluoroacetate] : ____
Result block: > 5 µM

Query block: Suppose we examine the compound CC(C)N1CC[C@@H](C(=O)c2ccccc2)[C@@H]1c1cc(Cl)cc2c1nc(N1CCNCC1)n2Cc1ccc(F)c(Cl)c1 [Example 153, trifluoroacetate] ; what Ki value has been reported?
Result block: > 5 µM

Query block: What value of Ki has been recorded for this entry: CNCc1cc(Cl)cc2c1nc(N1CCNCC1)n2Cc1cc(C)c(F)c(C)c1 [Example 129, trifluoroacetate]
Result block: < 0.5 µM

Query block: Suppose we examine the compound Cc1cc(-c2c(C)nn(C)c2C)c2nc(N3CCNCC3)n(Cc3ccc(F)c(Cl)c3)c2c1 [Example 121, trifluoroacetate] ; what Ki value has been reported?
Result block: < 0.5 µM

Query block: What value of measured Ki is listed for Cc1cc2nc(NCCN3CCOCC3)n(Cc3cc(F)cc(F)c3)c2cc1C [Example 31, trifluoroacetate] ?
Result block: > 5 µM

Query block: Reported Ki for Cc1cc2nc(NC3CCNC3)n(Cc3ccc(F)c(Cl)c3)c2cc1C (stereo not shown) : what is it?
Result block: 1 to 5 µM

Query block: Can you look up the measured Ki of C=Cc1cc(Cn2c(N3CCNCC3)nc3cc(C)c(C)cc32)ccc1F [Example 52, trifluoroacetate] for me?
Result block: > 5 µM

Query block: Fill in the blank: the reported Ki of Cc1cc(CN2CCC(O)CC2)c2nc(N3CCNCC3)n(Cc3cc(C)c(F)c(C)c3)c2c1 [Example 126, trifluoroacetate] is ____.
Result block: 1 to 5 µM

Query block: Would you kindly share the measured Ki for Cc1cc2c(nc(N3CC(CN)C3)n2Cc2ccc(F)c(C)c2)c(-c2ccccc2F)n1 ?
Result block: 0.5 to 1 µM
